Would you mind telling me the reported pIC50 of each entry?
- TARGET SYSTEM: COX II (Homo sapiens, UniProt P35354)
- Sequence (P35354 18-604): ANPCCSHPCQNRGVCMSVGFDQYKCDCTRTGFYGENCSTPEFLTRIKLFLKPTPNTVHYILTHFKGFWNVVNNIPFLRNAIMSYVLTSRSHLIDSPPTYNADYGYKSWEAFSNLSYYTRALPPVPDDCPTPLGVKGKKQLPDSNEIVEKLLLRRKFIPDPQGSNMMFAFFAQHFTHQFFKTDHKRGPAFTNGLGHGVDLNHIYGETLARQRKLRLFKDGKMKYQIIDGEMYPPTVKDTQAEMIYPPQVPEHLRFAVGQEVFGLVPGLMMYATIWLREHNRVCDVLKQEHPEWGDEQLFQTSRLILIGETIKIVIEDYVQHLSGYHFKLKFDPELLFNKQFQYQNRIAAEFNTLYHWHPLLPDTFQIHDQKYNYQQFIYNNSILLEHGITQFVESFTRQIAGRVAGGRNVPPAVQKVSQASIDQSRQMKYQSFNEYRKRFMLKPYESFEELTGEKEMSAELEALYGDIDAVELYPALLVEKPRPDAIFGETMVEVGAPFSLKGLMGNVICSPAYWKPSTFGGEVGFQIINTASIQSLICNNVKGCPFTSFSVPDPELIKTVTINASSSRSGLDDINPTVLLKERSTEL
- ASSAY DETAILS: radiometric assay, COX II inhibition (human recombinant, baculovirus expressed, partially purified)
- Type: biochemical
- Design: A 1.8 Kb DNA fragment containing the coding region of human COX II was generated by PCR; made in house; host or cells: Sf9 insect cells, baculovirus
- EXPERIMENTAL CONDITIONS: radiometric assay, human recombinant baculovirus expressed enzyme; read-out: COX II IC50 (Table 2)
One number for each entry, as −log10 of the molar value.

Recorded results for 5 compounds are shown here.
>  <COMPOUND>
COc1ccc(C(=O)c2ccc(Cc3ccc(=O)[nH]n3)n2C)cc1

>  <EXPERIMENTAL VALUE>
6.00

$$$$
>  <COMPOUND>
Cc1ccc(C(=O)c2c(Cl)cc(Cc3ccc(=O)[nH]n3)n2C)cc1

>  <EXPERIMENTAL VALUE>
6.15

$$$$
>  <COMPOUND>
COc1ccc(C(=O)c2c(Cl)cc(Cc3ccc(=O)[nH]n3)n2C)cc1

>  <EXPERIMENTAL VALUE>
6.09

$$$$
>  <COMPOUND>
Cn1c(Cc2ccc(=O)[nH]n2)ccc1C(=O)c1ccc(C2CC2)cc1

>  <EXPERIMENTAL VALUE>
6.14

$$$$
>  <COMPOUND>
Cc1ccc(C(=O)c2ccc(C(C)c3ccc(=O)[nH]n3)n2C)cc1 (stereo not shown)

>  <EXPERIMENTAL VALUE>
5.89

$$$$

Report pIC50 for each item below.
1. C#CCn1nc(Cc2cc(C)c(C(=O)c3ccc(Cl)cc3)n2C)ccc1=O
2. Cc1cc(Cc2ccc(=O)[nH]n2)n(C)c1C(=O)c1ccccc1

6.01
5.82

---

Exercise: for every item that follows, state its recorded IC50.
- TARGET SYSTEM: COX I (Homo sapiens)
- Sequence (P23219 24-599): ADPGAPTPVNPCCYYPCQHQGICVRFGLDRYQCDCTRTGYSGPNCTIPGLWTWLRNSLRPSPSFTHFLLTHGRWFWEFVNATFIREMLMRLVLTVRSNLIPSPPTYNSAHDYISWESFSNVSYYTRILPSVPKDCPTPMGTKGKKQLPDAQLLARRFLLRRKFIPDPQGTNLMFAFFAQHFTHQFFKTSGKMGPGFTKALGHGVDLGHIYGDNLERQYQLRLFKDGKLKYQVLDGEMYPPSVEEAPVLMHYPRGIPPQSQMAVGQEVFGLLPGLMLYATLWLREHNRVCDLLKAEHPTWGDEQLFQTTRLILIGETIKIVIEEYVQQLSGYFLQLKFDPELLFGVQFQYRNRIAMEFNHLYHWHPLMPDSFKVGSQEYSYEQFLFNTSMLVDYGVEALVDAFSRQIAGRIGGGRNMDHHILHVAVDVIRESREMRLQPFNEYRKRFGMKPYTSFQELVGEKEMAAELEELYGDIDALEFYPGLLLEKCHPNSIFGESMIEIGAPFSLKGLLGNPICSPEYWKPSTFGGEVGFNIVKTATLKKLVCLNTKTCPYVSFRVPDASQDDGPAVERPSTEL
- ASSAY DETAILS: radiometric assay, COX I inhibition (human recombinant, baculovirus expressed, partially purified)
- Format: biochemical
- Set-up: A 2 Kb fragment containing the coding region of COX I; made in house; host or cells: Sf9 insect cells, baculovirus (cDNA from Oxford Biomedical Research)
- EXPERIMENTAL CONDITIONS: radiometric assay, human recombinant baculovirus expressed enzyme; read-out: COX I IC50 (Table 2)
- From the text: Human prostaglandin G/H synthase I and II ("COX I" and "COX II") were expressed in the baculovirus expression system and purified to high levels. As described above, human recombinant COX I and COX II were cloned and expressed in a baculovirus system. Partially purified COX I and COX II enzymes were used for screening compounds for their ability to inhibit COX I and COX II activity, as described below. […]

Provide reported IC50 for each item, in the same order as listed.
1. CCc1ccc(C(=O)c2ccc(Cc3ccc(=O)[nH]n3)n2C)cc1
2. Cc1cc(C(C#N)c2ccc(=O)[nH]n2)n(C)c1C(=O)c1ccc(Cl)cc1 (stereo not drawn)
3. Cc1ccc(C(=O)c2c(Cl)cc(Cc3ccc(=O)[nH]n3)n2C)cc1

1. > 100 µM
2. > 100 µM
3. ≥ 1000 µM
